Each recorded value in this set is attributed to ChEMBL document CHEMBL1138290.

Provide the reported IC50 of each item.
Experiment: Antiproliferative activity against rat L12 cells after 48 hrs by XTT assay
Format: functional, cell-based
Remember to put the unit after the number in your answer.

Query: IC50; subject: COC(=O)Nc1nc2cc(C(=O)c3cccs3)ccc2[nH]1 [NOCODAZOLE]
300 nM

Would you kindly repeat that for COc1ccc(S(=O)(=O)Oc2c3ccccc3cc3ccccc23)cc1 ?
440 nM

Would you kindly repeat that for COc1ccc(S(=O)(=O)Oc2c3ccccc3cc3sccc23)cc1 ?
170 nM

Would you kindly repeat that for CC[C@]1(O)C[C@@H]2CN(CCc3c([nH]c4ccccc34)[C@@](C(=O)OC)(c3cc4c(cc3OC)N(C)[C@H]3[C@@](O)(C(N)=O)[C@H](O)[C@]5(CC)C=CCN6CC[C@]43[C@@H]65)C2)C1 [VINDESINE] ?
1 nM

* * *

Assay: Antiproliferative activity against rat multidrug-resistant L12 cells after 48 hrs by XTT assay
Format: functional, cell-based
Conditions: L1.2, 48 h
READOUT_TYPE: pIC50
Hey, just a heads up that pIC50 is the negative log base 10 of the concentration in molar.

Query: pIC50; subject: COc1ccc(S(=O)(=O)Oc2c3ccccc3cc3ccccc23)cc1
6.44

Would you kindly repeat that for COC(=O)Nc1nc2cc(C(=O)c3cccs3)ccc2[nH]1 [NOCODAZOLE] ?
7.30

Would you kindly repeat that for CC[C@]1(O)C[C@@H]2CN(CCc3c([nH]c4ccccc34)[C@@](C(=O)OC)(c3cc4c(cc3OC)N(C)[C@H]3[C@@](O)(C(N)=O)[C@H](O)[C@]5(CC)C=CCN6CC[C@]43[C@@H]65)C2)C1 [VINDESINE] ?
6.59

Would you kindly repeat that for COc1ccc(S(=O)(=O)Oc2c3ccccc3cc3sccc23)cc1 ?
6.72

Would you kindly repeat that for CC(=O)O[C@H]1C(=O)[C@@]2(C)[C@H]([C@H](OC(=O)c3ccccc3)[C@]3(O)C[C@H](OC(=O)[C@H](O)[C@@H](NC(=O)c4ccccc4)c4ccccc4)C(C)=C1C3(C)C)[C@]1(OC(C)=O)CO[C@@H]1C[C@@H]2O [PACLITAXEL] ?
6.40

* * *

Provide the reported Activity of each item.
Assay: Cell cycle arrest in KB/HeLa cells assessed as accumulation at S phase at 3.16 nM after 24 hrs by flow cytometric analysis
Type: functional, cell-based
Details: Homo sapiens
Expressed in %, but write only the number.

Query: Activity; subject: COc1cc2c(c(OC)c1OC)-c1ccc(OC)c(=O)cc1[C@@H](NC(C)=O)CC2
25.1

Would you kindly repeat that for COC(=O)Nc1nc2cc(C(=O)c3cccs3)ccc2[nH]1 ?
24.8

Would you kindly repeat that for COc1ccc(S(=O)(=O)Oc2c3ccccc3cc3sccc23)cc1 ?
26.5

Would you kindly repeat that for CC(=O)O[C@H]1C(=O)[C@@]2(C)[C@H]([C@H](OC(=O)c3ccccc3)[C@]3(O)C[C@H](OC(=O)[C@H](O)[C@@H](NC(=O)c4ccccc4)c4ccccc4)C(C)=C1C3(C)C)[C@]1(OC(C)=O)CO[C@@H]1C[C@@H]2O ?
27

Would you kindly repeat that for COc1ccc(S(=O)(=O)Oc2c3ccccc3cc3ccccc23)cc1 ?
26

Would you kindly repeat that for CC[C@]1(O)C[C@H]2CN(CCc3c([nH]c4ccccc34)[C@@](C(=O)OC)(c3cc4c(cc3OC)N(C=O)[C@H]3[C@@](O)(C(=O)OC)[C@H](OC(C)=O)[C@]5(CC)C=CCN6CC[C@]43[C@@H]65)C2)C1 ?
26
